Assay: Log P by HPLC on reversed phase columns (EEC directive 79/831 Annex V.A8; methods [a], [b], [c])
Assay type: physicochemical
Conditions: reversed phase HPLC column; method [a]: LC-UV, acidic range, 0.1% formic acid in water and acetonitrile as eluent (linear gradient from 10% to 95% acetonitrile)
Protocol: Measurement of Log P values was performed according to EEC directive 79/831 Annex V.A8 by HPLC (High Performance Liquid Chromatography) on reversed phase columns with the following methods: • ^[a] Log P value is determined by measurement of LC-UV, in an acidic range, with 0.1% formic acid in water and acetonitrile as eluent (linear gradient from 10% acetonitrile to 95% acetonitrile). • ^[b] […]
testReadout: chromatographic logP

Reference set (3 entries):
O=C(Cn1cncc1Br)c1ccc(Oc2ccc(I)cc2)cc1Cl ... 3.35
O=C(Cn1cncc1Cl)c1ccc(Oc2ccc(Br)cc2)cc1Cl ... 3.13
N#Cc1cncn1CC(=O)c1ccc(Oc2ccc(Cl)cc2)cc1F ... 3.27

(P) N#Cc1cncn1CC(=O)c1cnc(Oc2ccc(Cl)cc2F)cc1C(F)(F)F
(Q) O=C(Cn1cncc1F)c1cnc(Oc2ccc(Cl)cc2)cc1Cl
Of P and Q , whose reported chromatographic logP is the larger number? Select an item and report its label.
P
(P: 3.46, Q: 2.32)
